Tested on: Cryptococcus neoformans
Settings: Concentration 32 ug.mL-1; ASSAY_TEST Inhibition of Fungal Growth; detection method Resazurin; Absorption (OD600-OD570); plate type 384well; NBS; CORNING #3640
Description: Antifungal activity against Cryptococcus neoformans H99 ATCC 208821 (CO-ADD:FG_002); MIC in YNB media using NBS plates, by Resazurin OD(600-570)
Results with a measured potency or affinity are listed apart.
readout: Inhibition (%)
Write the answer as a number in %, unit excluded.

Previously resolved entries follow.
compound	numeric-readout
COc1ccc(-c2cc3c4nnc(SCC(=O)Nc5ccc(C)c(F)c5)n4ccn3n2)cc1	-5.86
Cc1ccc(-c2cc3c4nn(CC(=O)Nc5c(C)cccc5C)c(=O)n4ccn3n2)cc1	-14.67
COc1ccc(NC(=O)Cn2c(=O)c3nnc(C(C)C)n3c3ccccc32)cc1Cl	-13.11
COc1ccc(NC(=O)Cn2nc3c4cc(-c5ccc(C)c(C)c5)nn4ccn3c2=O)cc1OC	-30.03

Turning now to a further record.
Inquiry: Could you share what Inhibition was measured for CCC(Sc1nnc2c(=O)n(-c3cccc(OC)c3)ccn12)C(=O)Nc1cc(C)ccc1C (stereo not given) , tested on Cryptococcus neoformans?
Reply text: -10.57

---

Test system: Cryptococcus neoformans
Conditions: Concentration 32 ug.mL-1; ASSAY_TEST Inhibition of Fungal Growth; detection method Resazurin; Absorption (OD600-OD570); plate type 384well; NBS; CORNING #3640
Measured potencies and affinities stand elsewhere.
Threshold -10%: Inhibition strictly smaller gives fulfilled, otherwise not fulfilled.

Below are worked cases with known answers.
compound-structure-string	assigned-category
O=S(=O)(c1ccc2nncn2c1)N(Cc1cccc(Cl)c1)c1ccc2c(c1)OCO2	fulfilled
CCCCn1c(=O)c2sccc2n2c(=O)n(CC(=O)N(C)c3ccccc3)nc12	fulfilled
Cc1ccc(Oc2nccn3c(=O)n(CC(=O)Nc4cc(F)ccc4F)nc23)cc1	fulfilled

Inquiry: Dear colleague, could you confirm whether Inhibition of Cc1cc(C)c(NC(=O)CSc2nc3ccccc3n3c(C)nnc23)c(C)c1 falls below -10%? Thanks.
Reply text: not fulfilled

Inquiry: Dear reviewer, please state whether CC(C)Cn1c(=O)c2sccc2n2c(=O)n(Cc3cccc(Br)c3)nc12 has Inhibition strictly beneath -10%.
Reply text: fulfilled

Inquiry: Quick check: does Cc1ccc(NC(=O)Cn2c(=O)c3nnc(C)n3c3ccccc32)cc1F have Inhibition under -10%?
Reply text: fulfilled

Inquiry: Threshold test, Inhibition < -10%: O=C(Cn1nc2ccc(-c3ccc(Cl)cc3)nn2c1=O)N1CCN(c2ccccc2F)CC1
Reply text: fulfilled

Inquiry: Dear colleague, could you confirm whether Inhibition of O=S(=O)(c1cccn2c(SCc3c(F)cccc3Cl)nnc12)N1CCCC1 falls below -10%? Thanks.
Reply text: not fulfilled

Inquiry: I wonder whether Cc1ccc(-c2nc(CSc3nc4ccccc4n4c(C(C)C)nnc34)c(C)o2)cc1 has Inhibition below -10%. Can you tell?
Reply text: fulfilled

Inquiry: Does the reported Inhibition of COc1ccccc1CNC(=O)Cn1nc2c(SCc3ccc(Cl)cc3)nccn2c1=O stay below -10%?
Reply text: not fulfilled

---

Each record here notes measured Inhibition.
Tested on: Candida albicans
Settings: Concentration 32 ug.mL-1; ASSAY_TEST Inhibition of Fungal Growth; detection method Absorption (OD530)
Description: Antifungal activity against Candida albicans ATCC 90028 (CO-ADD:FG_001); MIC in YNB media using NBS plates, by OD630
Results with a measured potency or affinity are listed apart.
// units = %; emit number, no label

Reference set, count: 8
compound	Inhibition, %
Cc1ccc(CNC(=O)Cn2nc3c(SC4CCCCC4)nccn3c2=O)cc1	-1.05
CCOc1ccc(-n2ccn3c(SC(CC)C(=O)Nc4cc(F)ccc4F)nnc3c2=O)cc1 (stereo not given)	0.62
C=Cc1ccc(CN(c2ccc(Cl)cc2)S(=O)(=O)c2cccn3c(C)nnc23)cc1	0.36
Cc1ccc(Cn2nc3c(=O)n(-c4ccc(C)c(C)c4)ccn3c2=O)cc1	3.7
COc1cc(NC(=O)Cn2nc3c(SC4CCCCC4)nccn3c2=O)cc(OC)c1	13.52
COc1ccc(Cl)cc1NC(=O)Cn1nc2ccc(Sc3ccccc3)nn2c1=O	45.02
N#CCn1nc2n(CCC(=O)NC3CCCCC3)c(=O)c3ccccc3n2c1=O	1.95
CC(C)CCn1c(=O)c2sccc2n2c(=O)n(Cc3ccccc3Cl)nc12	-1.94

Inquiry: Using the record for COc1cccc(CSc2nnc3c(=O)n(-c4ccc(Br)cc4)ccn23)c1 , report its Inhibition.
Reply text: 19.07

Inquiry: Find the recorded Inhibition belonging to CCOc1ccc(NC(=O)Cn2nc3c4cc(-c5ccc(C)cc5)nn4ccn3c2=O)cc1 and report it.
Reply text: 1.16

These measurements were taken from ChEMBL document CHEMBL4513146.
